The reported numbers originate from patent US12581252B2.

Listed here are compounds together with their documented pIC50.
biological target: H1047R PIK3CA enzyme (Homo sapiens, UniProt P42336, H1047R); assay: ADP-Glo Biochemical PIK3CA Kinase Assay
Sequence (P42336 whole entry H1047R): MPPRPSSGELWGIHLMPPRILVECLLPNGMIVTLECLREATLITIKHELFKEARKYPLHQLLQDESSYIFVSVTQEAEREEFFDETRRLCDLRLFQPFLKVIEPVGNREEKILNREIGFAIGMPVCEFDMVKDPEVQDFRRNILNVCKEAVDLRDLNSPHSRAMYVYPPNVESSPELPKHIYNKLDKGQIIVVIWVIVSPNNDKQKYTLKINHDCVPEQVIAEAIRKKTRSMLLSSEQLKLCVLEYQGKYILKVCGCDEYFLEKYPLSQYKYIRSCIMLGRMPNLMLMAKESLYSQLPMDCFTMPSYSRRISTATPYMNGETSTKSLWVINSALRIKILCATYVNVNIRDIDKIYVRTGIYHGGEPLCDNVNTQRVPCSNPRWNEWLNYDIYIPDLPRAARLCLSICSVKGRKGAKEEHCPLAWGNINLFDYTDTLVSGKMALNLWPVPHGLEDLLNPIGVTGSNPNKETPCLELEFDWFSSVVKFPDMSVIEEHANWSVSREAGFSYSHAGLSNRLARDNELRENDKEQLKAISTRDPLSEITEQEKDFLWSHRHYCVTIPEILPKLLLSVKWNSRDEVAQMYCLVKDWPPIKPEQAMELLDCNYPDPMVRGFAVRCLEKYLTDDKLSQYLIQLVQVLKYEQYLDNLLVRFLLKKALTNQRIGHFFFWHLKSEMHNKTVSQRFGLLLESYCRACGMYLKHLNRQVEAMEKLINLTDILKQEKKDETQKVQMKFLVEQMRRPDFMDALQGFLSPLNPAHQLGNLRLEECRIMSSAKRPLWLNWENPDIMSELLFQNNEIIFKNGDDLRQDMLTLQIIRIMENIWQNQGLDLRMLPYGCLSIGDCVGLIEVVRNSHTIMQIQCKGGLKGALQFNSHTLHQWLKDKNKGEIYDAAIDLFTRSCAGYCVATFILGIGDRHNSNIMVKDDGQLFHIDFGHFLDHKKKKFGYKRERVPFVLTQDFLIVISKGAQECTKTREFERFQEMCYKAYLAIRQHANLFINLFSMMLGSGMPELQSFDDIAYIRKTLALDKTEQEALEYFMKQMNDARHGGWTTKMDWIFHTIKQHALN
Sequence (P27986 whole entry partner): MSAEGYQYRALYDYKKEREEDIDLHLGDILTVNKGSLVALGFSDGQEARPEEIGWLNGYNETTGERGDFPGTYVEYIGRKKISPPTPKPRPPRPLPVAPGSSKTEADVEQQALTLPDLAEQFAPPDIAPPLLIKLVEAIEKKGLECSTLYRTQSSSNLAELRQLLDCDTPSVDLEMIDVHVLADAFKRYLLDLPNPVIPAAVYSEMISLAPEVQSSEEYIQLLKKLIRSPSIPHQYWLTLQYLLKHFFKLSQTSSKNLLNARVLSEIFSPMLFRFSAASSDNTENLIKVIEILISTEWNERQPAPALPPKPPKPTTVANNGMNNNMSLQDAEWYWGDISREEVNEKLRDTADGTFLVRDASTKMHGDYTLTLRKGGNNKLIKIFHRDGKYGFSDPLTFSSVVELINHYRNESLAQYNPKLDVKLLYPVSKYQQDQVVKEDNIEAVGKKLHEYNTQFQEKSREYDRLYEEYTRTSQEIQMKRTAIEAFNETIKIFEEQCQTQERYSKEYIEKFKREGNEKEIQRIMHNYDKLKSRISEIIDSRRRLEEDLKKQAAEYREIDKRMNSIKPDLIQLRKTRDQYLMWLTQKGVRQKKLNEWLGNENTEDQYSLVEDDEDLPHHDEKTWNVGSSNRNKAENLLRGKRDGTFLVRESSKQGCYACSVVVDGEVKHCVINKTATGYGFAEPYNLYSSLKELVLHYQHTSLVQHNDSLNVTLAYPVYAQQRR
pIC50: −log10 of the molar value.

Example compounds with recorded pIC50:
compound | pIC50
O=C(Nc1cccc2c1C(c1ccccc1C1CC1)NC2=O)c1cc(F)cc(C(F)(F)F)c1 (stereo not drawn) | 6.30 to 7.00
O=C1C[C@@H](c2cc(NC(=O)c3cc(F)cc(C(F)(F)F)c3)c3c(c2)C(=O)N[C@H]3c2cc(F)ccc2Cl)CN1 (single isomer, unassigned) | ≥ 7.00
CCC1CCN(C(=O)Nc2cccc3c2C(c2cc(F)ccc2Cl)NC3=O)C1 (stereo not drawn) | 4.00 to 5.00

# return pIC50 of N#Cc1ccc(-c2cc(NC(=O)c3cc(F)cc(C(F)(F)F)c3)c3c(c2)C(=O)N[C@@H]3c2cc(F)ccc2Cl)cn1 (single isomer, unassigned) (system: H1047R PIK3CA enzyme (Homo sapiens, UniProt P42336, H1047R))
≥ 7.00

# return pIC50 of NCCc1cc(NC(=O)N2C[C@@H](O)c3cc(F)ccc32)c2c(c1)C(=O)N[C@H]2c1cc(F)ccc1Cl (single isomer, unassigned) (system: H1047R PIK3CA enzyme (Homo sapiens, UniProt P42336, H1047R))
5.00 to 6.00

# return pIC50 of O=C1NC(c2cc(F)ccc2Cl)c2c(NC(=O)C3COC4CCCCC43)cccc21 (stereo not drawn) (system: H1047R PIK3CA enzyme (Homo sapiens, UniProt P42336, H1047R))
4.00 to 5.00
